B1: Transcription factor SOX-11, residues 50 to 117; numbered along this chain, P35716 (parent)
chain: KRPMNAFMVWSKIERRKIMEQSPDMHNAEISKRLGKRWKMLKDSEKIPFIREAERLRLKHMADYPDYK

# Variants of: B1
# METHOD: abundance fitness (aPCA) (normalised: wild type 0, dead -1); higher = more abundant; growth selection in yeast, the domain comes from the species named
# REPORTED CONDITIONS: Homo sapiens
Here, each record is paired with measured abundance fitness data.
Format: numeric value only, no unit, no commentary.

Example entries and their recorded answers appear below.
| MUTATION SPEC | NUMBER |
| --- | --- |
| M40L | 0.011 |
| K36L | 0.034 |

Need abundance fitness of "A28L" , thanks. -0.211

Need abundance fitness of "I30C" , thanks. -0.304

Need abundance fitness of "P23H" , thanks. -0.791

Need abundance fitness of "E29G" , thanks. -0.792
